Below is a list of entries, each paired with its recorded Inhibitory effects of cyclooxygenase (COX): COX-1 value.
biological target: cyclooxygenase-1 (Homo sapiens, UniProt P23219); construct: The cultured U-937 (humane lymphoma cell, obtained from Korean cell line bank) was centrifuged to collect the pellet; endogenous in cells; host or cells: U-937 (human lymphoma cell line, Korean cell line bank); experiment: Inhibition of cyclooxygenase-1 in U-937 cells (PGE2 quantitation); type: cell-based; conditions: 10 μM; U-937 cells
Sequence (P23219 24-599): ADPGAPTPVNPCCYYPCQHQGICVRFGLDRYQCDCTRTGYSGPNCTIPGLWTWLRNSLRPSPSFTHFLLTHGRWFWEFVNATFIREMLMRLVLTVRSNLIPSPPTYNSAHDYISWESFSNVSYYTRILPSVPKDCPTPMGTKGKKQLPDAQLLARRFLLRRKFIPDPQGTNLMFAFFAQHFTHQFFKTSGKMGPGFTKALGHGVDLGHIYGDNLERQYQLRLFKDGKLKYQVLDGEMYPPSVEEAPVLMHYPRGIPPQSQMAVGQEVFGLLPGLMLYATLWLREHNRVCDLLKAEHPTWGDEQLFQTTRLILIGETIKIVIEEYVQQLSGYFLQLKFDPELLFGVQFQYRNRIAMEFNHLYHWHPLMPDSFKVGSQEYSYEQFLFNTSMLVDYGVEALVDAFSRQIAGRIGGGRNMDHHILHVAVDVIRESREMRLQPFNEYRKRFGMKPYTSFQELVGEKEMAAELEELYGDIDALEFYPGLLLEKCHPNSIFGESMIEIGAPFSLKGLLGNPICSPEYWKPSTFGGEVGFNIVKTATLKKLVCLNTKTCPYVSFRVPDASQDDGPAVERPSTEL
endpointLabel: Inhibitory effects of cyclooxygenase (COX): COX-1 (% inhibition)

mol | reportedValue
COc1cc(OC)cc(-c2nc(C)nn2-c2ccc(S(N)(=O)=O)cn2)c1 | 26.8
COc1ccc(-c2nc(C)nn2-c2ccc(S(N)(=O)=O)cn2)cc1 | 61.0
Cc1ccc(-c2nc(C)nn2-c2ccc(S(N)(=O)=O)cn2)cc1 | 62.9
Cc1nc(-c2ccc(Br)cc2)n(-c2ccc(S(N)(=O)=O)cc2)n1 | 87.7
Cc1nc(-c2ccc(Br)cc2)n(-c2ccc(S(N)(=O)=O)cn2)n1 | 28.7
Cc1nc(-c2ccc(Cl)cc2)n(-c2ccc(S(C)(=O)=O)cc2)n1 | 73.1
Cc1nc(-c2cccc(F)c2)n(-c2ccc(S(N)(=O)=O)cc2)n1 | 24.4
COc1cccc(-c2nc(C)nn2-c2ccc(S(N)(=O)=O)cc2)c1 | 42.0
COc1cc(OC)cc(-c2nc(C)nn2-c2ccc(S(N)(=O)=O)cc2)c1 | 65.9

====

target: cyclooxygenase-1 (Homo sapiens); construct: The cultured U-937 (humane lymphoma cell, obtained from Korean cell line bank) was centrifuged to collect the pellet; endogenous in cells; host or cells: U-937 (human lymphoma cell line, Korean cell line bank); experiment: Inhibition of cyclooxygenase-1 in U-937 cells (PGE2 quantitation); format: cell-based; conditions: 3 μM; U-937 cells
Note to self: Inhibitory effects of cyclooxygenase (COX): COX-1 under 40 % inhibition means Y, ties and anything higher get N.

compound | measuredOn | categoryLabel
COc1ccc(-c2nc(C)nn2-c2ccc(S(N)(=O)=O)cc2)cc1 [Example 6] | cyclooxygenase-1 (Homo sapiens) | N
Cc1nc(-c2ccc(Br)cc2)n(-c2ccc(S(C)(=O)=O)cc2)n1 [Example 30] | cyclooxygenase-1 (Homo sapiens) | N
Cc1nc(-c2ccc(F)cc2)n(-c2ccc(S(C)(=O)=O)cc2)n1 [Example 26] | cyclooxygenase-1 (Homo sapiens) | N
Cc1nc(-c2cccc(Cl)c2)n(-c2ccc(S(N)(=O)=O)cc2)n1 [Example 8] | cyclooxygenase-1 (Homo sapiens) | N
Cc1nc(-c2ccc(Cl)cc2)n(-c2ccc(S(N)(=O)=O)cc2)n1 [Example 3] | cyclooxygenase-1 (Homo sapiens) | Y
Cc1nc(-c2cccc(F)c2)n(-c2ccc(S(N)(=O)=O)cc2)n1 [Example 7] | cyclooxygenase-1 (Homo sapiens) | Y
Cc1nc(-c2ccccc2)n(-c2ccc(S(N)(=O)=O)cc2)n1 [Example 1] | cyclooxygenase-1 (Homo sapiens) | Y
COc1cc(OC)cc(-c2nc(C)nn2-c2ccc(S(N)(=O)=O)cc2)c1 [Example 13] | cyclooxygenase-1 (Homo sapiens) | N
COc1ccccc1-c1nc(C)nn1-c1ccc(S(N)(=O)=O)cc1 [Example 11] | cyclooxygenase-1 (Homo sapiens) | N

====

Molecular target: cyclooxygenase-2 (Mus musculus)
Construct: endogenous in cells; host or cells: Raw 264.7 (Korean cell line bank), aspirin-pretreated, induced with interferon gamma and LPS
Sequence (Q05769 18-604): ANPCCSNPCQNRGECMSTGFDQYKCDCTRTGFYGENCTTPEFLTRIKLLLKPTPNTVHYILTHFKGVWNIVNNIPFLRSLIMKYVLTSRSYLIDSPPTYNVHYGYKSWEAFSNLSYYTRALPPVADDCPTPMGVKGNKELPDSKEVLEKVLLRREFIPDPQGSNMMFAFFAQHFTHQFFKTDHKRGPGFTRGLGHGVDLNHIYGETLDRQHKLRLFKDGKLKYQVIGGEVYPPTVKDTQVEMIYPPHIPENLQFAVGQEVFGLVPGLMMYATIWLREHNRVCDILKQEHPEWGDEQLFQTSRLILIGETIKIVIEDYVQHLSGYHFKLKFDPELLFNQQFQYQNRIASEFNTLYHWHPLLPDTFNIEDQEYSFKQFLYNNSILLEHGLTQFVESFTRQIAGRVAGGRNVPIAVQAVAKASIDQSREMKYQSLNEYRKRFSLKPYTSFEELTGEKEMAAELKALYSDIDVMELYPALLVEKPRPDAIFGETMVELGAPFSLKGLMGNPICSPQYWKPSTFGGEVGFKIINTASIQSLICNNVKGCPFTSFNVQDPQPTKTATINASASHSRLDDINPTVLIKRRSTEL
Test: Inhibition of cyclooxygenase-2 in Raw 264.7 cells treated with interferon γ and LPS (PGE2 EIA)
Assay type: cell-based
Conditions: 300 nM; Raw 264.7 cells
Description: In order to investigate pharmacologically the selective inhibition activity against cyclooxygenase-2 enzyme, the inhibitive effects against cyclooxygenase-1 and cyclooxygenase-2 were measured by two methods as follows. And then, each samples were replaced with new media and cultured for 30 minutes. […] Then, the media was transferred to other tubes and the PGE 2 was quantitated by using EIA kit from Cayman Chemicals.
endpointLabel: Inhibitory effects of cyclooxygenase (COX): COX-2 (% inhibition)

mol | reportedValue
Cc1nc(-c2ccc(Cl)cc2)n(-c2ccc(S(C)(=O)=O)cc2)n1 | 57.8
COc1ccc(-c2nc(C)nn2-c2ccc(S(N)(=O)=O)cc2)cc1 | 99.9
Cc1nc(-c2ccccc2)n(-c2ccc(S(N)(=O)=O)cn2)n1 | 99.9
